Target: T1, human LGR7/RXFP1 receptor (human, UniProt Q9HBX9 1-757)
T1 sequence (looked up): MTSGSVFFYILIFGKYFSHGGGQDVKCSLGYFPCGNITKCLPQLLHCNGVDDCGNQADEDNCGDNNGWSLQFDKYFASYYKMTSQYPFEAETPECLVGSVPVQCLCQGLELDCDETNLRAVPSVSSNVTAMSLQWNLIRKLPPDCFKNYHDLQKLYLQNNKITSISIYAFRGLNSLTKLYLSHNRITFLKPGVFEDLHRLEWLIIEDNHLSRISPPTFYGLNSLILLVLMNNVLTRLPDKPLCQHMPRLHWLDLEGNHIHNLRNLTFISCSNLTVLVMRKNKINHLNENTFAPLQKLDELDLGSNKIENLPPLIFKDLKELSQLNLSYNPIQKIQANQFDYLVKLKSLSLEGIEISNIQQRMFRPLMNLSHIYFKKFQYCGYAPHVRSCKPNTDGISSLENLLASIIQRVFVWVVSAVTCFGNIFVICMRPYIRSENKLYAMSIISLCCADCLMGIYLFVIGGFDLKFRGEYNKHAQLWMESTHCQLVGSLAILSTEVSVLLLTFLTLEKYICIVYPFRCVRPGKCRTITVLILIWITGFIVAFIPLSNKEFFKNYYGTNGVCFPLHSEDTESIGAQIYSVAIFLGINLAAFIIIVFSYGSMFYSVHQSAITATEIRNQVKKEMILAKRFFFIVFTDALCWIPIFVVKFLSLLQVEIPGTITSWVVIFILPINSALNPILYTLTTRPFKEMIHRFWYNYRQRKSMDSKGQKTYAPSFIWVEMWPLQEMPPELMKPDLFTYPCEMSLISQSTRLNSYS
Experiment: cell-based or functional assay
I'd appreciate it if you could supply EC50 (M), CRE-luciferase reporter in CHO-CRE-LGR7 cells values for the items below.
Give bare numbers, in M.

Record excerpt, results attached:
[[record]]
binder = "scR-Var2 (ligand) GCGSGGQLYSALANKCCHVGCTKRSLARFCGGGSGGGSGSWMEEVIKLCGRELVRAQIAICGMSTWS"
unit_string = "M"
measured = "4.2e-08"

[[record]]
binder = "scR-Fc 11 (Fc fusion) HHHHHHPTCPTCHKCPVPELLGGPSVFIFPPKPKDILLISQNAKVTCVVVDVSEEEPDVQFSWFVNNVEVHTAQTQPREEQYNSTFRVVSALPIQHQDWMSGKEFKCKVNNKALPSPIEKTISKPKGLVRKPQVYVMGPPTEQLTEQTVSLTCLTSGFLPNDIGVEWTSNGHIEKNYKNTEPVMDSDGSFFMYSKLNVERSRWDSRAPFVCSVVHEGLHNHHVEKSISRPPGKGGSPQLYSALANKCCHVGCTKRSLARFCGGGSGGGSGSWMEEVIKLCGRELVRAQIAICGMSTWS"
unit_string = "M"
measured = "1.2e-09"


Next binder, EC50 (M), CRE-luciferase reporter in CHO-CRE-LGR7 cells to be filled in.
Problem: Using the record for scR-Var1 (ligand) QLYSALANKCCHVGCTKRSLARFCGGGSGGGSGSWMEEVIKLCGRELVRAQIAICGMSTWSGGSGCG , report its EC50 (M), CRE-luciferase reporter in CHO-CRE-LGR7 cells.
Solution: 1.1e-07

Sourced from patent US20140187491A1
